Each recorded value in this set is attributed to the supplement of paper PMC13207355.

System: E34 (patient-derived glioblastoma stem cells of proneural subtype);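 further: nuclei counted by high-content imaging of Hoechst-stained cells in laminin-coated 384-well plates, relative to 0.1% DMSO vehicle wells, with staurosporine as cell-death control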
Test Protocol: surviving fraction (nuclei count normalised to DMSO); higher = more cells surviving (less toxic)
Condition: 3000 nM; exposure time: 72 h
Counter-ions that a name gives are not always drawn.
Quantity Name: surviving fraction

Sample records with surviving fraction:
CCC1=C[C@@H]2CN(C1)Cc1c([nH]c3ccccc13)[C@@](C(=O)OC)(c1cc3c(cc1OC)N(C)[C@H]1[C@@](O)(C(=O)OC)[C@H](OC(C)=O)[C@]4(CC)C=CCN5CC[C@]31[C@@H]54)C2 [Vinorelbine Tartrate] = 0.402
CC(C)CC(=O)N[C@H](C(=O)N[C@H](C(=O)N[C@@H](CC(C)C)[C@@H](O)CC(=O)N[C@@H](C)C(=O)N[C@@H](CC(C)C)[C@@H](O)CC(=O)O)C(C)C)C(C)C [Pepstatin A] = 0.906

Dear colleague, could you send me surviving fraction for each of the items below? Thanks.
1. CC(C)NCC(O)c1cc(O)cc(O)c1 (centres undefined) [Metaproterenol sulfate, orciprenaline sulfate]
2. O=C1CCc2cc(OCCCCc3nnnn3C3CCCCC3)ccc2N1 [Cilostazol]
3. C/C=C(\C)C(=O)N[C@@H](c1ccccc1)[C@@H](O)C(=O)O[C@H]1C[C@@]2(O)[C@@H](OC(=O)c3ccccc3)[C@@H]3[C@]4(OC(C)=O)CO[C@@H]4C[C@H](O)[C@@]3(C)C(=O)[C@H](OC(C)=O)C(=C1C)C2(C)C [Cephalomannine]
4. C=C(C)[C@H]1Cc2c(ccc3c2O[C@@H]2COc4cc(OC)c(OC)cc4[C@@H]2C3=O)O1 [Rotenone]
5. COc1cc([C@@H]2c3cc4c(cc3[C@@H](O[C@@H]3O[C@@H]5CO[C@@H](C)O[C@H]5[C@H](O)[C@H]3O)[C@H]3COC(=O)[C@H]23)OCO4)cc(OC)c1O [Etoposide]
6. C#C[C@]1(O)CC[C@H]2[C@@H]3CCc4cc(OC5CCCC5)ccc4[C@H]3CC[C@@]21C [Quinestrol]
7. CC(C)C(=O)OCC(=O)[C@@]12O[C@H](C3CCCCC3)O[C@@H]1C[C@H]1[C@@H]3CCC4=CC(=O)C=C[C@]4(C)[C@H]3[C@@H](O)C[C@@]12C [Ciclesonide]

Given back:
[0.961, 0.959, 0.382, 0.473, 0.557, 0.918, 0.589]

Dear colleague, could you send me surviving fraction for each of the items below? Thanks.
1. CN1C(=O)CC(c2ccccc2)C1=O (centres undefined) [Phensuximide]
2. CC(C)C[C@H](NC(=O)[C@H](Cc1ccccc1)NC(=O)c1cnccn1)B(O)O [Bortezomib]
3. OC[C@H]1O[C@@H](Oc2ccc(O)cc2)[C@H](O)[C@@H](O)[C@@H]1O [Arbutin]
4. CC1(C(=O)O)C2CCC(O2)C1(C)C(=O)O (centres undefined) [Cantharidic Acid]
5. Cc1cc(C)c(CN2CCc3c(Cl)cc(-c4c(C)noc4C)c(Cl)c3C2=O)c(=O)[nH]1

Given back:
1.1
0.0385
0.848
0.832
0.96
